- Target Under Test: Flt4 (Homo sapiens, UniProt P35916)
- Sequence (P35916 25-1363): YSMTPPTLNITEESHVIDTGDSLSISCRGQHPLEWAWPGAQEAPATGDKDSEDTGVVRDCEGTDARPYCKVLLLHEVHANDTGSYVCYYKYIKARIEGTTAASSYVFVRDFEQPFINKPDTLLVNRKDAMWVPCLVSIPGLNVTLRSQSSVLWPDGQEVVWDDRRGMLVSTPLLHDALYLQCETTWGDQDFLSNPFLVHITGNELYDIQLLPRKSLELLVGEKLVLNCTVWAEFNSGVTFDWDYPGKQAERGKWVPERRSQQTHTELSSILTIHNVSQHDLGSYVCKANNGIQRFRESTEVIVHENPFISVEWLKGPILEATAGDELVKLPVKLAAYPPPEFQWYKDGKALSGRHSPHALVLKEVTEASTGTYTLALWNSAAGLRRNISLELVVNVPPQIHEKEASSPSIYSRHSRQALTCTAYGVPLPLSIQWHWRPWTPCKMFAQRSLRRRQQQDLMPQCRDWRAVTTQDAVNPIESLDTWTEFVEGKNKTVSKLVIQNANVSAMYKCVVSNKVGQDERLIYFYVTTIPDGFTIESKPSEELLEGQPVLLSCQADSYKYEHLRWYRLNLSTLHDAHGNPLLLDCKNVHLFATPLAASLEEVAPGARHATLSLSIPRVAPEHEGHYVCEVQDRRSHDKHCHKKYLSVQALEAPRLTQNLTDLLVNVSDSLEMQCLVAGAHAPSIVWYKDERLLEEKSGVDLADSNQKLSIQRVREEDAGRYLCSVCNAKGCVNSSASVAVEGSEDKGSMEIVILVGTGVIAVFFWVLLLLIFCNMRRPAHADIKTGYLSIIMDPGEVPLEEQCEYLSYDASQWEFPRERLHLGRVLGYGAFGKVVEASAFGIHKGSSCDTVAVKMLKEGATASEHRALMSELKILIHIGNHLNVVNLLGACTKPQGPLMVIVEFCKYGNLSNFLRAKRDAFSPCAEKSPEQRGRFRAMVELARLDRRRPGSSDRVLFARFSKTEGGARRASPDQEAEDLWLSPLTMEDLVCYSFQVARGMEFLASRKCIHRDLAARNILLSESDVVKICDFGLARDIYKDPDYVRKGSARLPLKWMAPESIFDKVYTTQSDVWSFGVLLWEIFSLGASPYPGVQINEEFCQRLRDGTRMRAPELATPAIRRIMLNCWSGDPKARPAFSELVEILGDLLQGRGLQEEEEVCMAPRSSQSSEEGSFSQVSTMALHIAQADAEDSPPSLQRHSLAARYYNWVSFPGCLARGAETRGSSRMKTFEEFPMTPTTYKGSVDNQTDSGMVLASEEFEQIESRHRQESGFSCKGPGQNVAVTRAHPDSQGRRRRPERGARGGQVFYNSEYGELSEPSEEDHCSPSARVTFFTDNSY
Measured Parameter: IC50

>>> obs_value("NC(=O)c1nc(-c2cccc3ccccc23)cnc1N")
"< 50 nM"

====

- Target Under Test: Chk1 (Homo sapiens)
- Construct: purchased Upstate Biotechnology
- Sequence (O14757 whole entry): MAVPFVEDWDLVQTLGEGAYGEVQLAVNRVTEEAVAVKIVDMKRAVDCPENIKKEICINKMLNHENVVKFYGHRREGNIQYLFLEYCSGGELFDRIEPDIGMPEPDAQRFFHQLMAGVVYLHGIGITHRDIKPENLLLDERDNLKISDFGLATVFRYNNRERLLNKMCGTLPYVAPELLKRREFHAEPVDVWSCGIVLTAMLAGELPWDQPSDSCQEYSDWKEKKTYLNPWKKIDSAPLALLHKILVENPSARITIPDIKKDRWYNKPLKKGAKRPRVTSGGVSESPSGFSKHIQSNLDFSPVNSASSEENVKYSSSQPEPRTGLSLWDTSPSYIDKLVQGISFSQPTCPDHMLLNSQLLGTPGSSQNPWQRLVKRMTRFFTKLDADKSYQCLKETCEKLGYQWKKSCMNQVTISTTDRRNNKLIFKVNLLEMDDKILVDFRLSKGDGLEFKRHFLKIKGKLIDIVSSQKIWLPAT
- Protocol Text: Chk1 kinase assay: incorporation of γ-33P ATP into immobilized myelin basic protein
- Assay type: biochemical
- Test Conditions: Table 11; Chk1 only; read-out: Chk1 IC50
Measured Parameter: IC50

>>> obs_value("CNC(=O)c1nc(-c2cccc(CN[C@@H](C)c3ccccc3)c2)cnc1N")
"50 to 1000 nM"
>>> obs_value("CNC(=O)c1nc(-c2cccc(CNC3Cc4c(F)cccc4C3O)c2)cnc1N (centres unmarked)")
"50 to 1000 nM"
>>> obs_value("Cn1nc(-c2nc(-c3cccc(C(=O)NCc4ccccc4)c3)cnc2N)nc1-c1ccccc1")
"≥ 10000 nM"
>>> obs_value("COc1cccc(-c2nnc(-c3nc(-c4cccc(CO)c4)cnc3N)[nH]2)c1")
"≥ 10000 nM"
>>> obs_value("Nc1ncc(-c2cccc(C(=O)NCCc3ccccc3)c2)nc1C(=O)N[C@H]1CCNC1")
"50 to 1000 nM"
>>> obs_value("CNC(=O)c1nc(-c2cccc(CNC3CCc4c(Cl)cccc43)c2)cnc1N (centres unmarked)")
"< 50 nM"
>>> obs_value("Nc1ncc(-c2cccc(C(=O)NC3Cc4ccccc4C3)c2)nc1C(=O)N[C@H]1CCNC1")
"50 to 1000 nM"
>>> obs_value("Nc1ncc(-c2cccc(CN[C@H]3CCc4ccccc43)c2)nc1C(=O)NCCN1CCCC1")
"50 to 1000 nM"

====

- Target Under Test: Chk1 (Homo sapiens)
- Construct: purchased Upstate Biotechnology
- Protocol Text: Chk1 kinase assay: incorporation of γ-33P ATP into immobilized myelin basic protein
- Assay type: biochemical
- Test Conditions: Table 11; Chk1 only; read-out: Chk1 IC50
# Lookup of reported IC50 keyed by entry
Measured Parameter: IC50

>>> obs_value("C/C(=N\\Nc1ccc(OC(F)(F)F)cc1)c1nc(-c2cccc(C(=O)NCc3ccccc3)c2)cnc1N [Example 634]")
"≥ 10 µM"
>>> obs_value("Nc1ncc(-c2cccc(C(=O)NCc3ccccc3)c2)nc1C(=O)NCCNC(=O)c1cccnc1Cl [Example 664]")
"1 to 10 µM"
>>> obs_value("Nc1ncc(-c2cccc(CO)c2)nc1-c1nc([C@@H]2CCCNC2)n[nH]1 [Example 724]")
"0.05 to 1 µM"
>>> obs_value("Nc1ncc(-c2cccc(C(=O)NCc3ccccc3)c2)nc1C(=O)N1CCCC(C(=O)O)C1 (centres unmarked) [Example 614]")
"≥ 10 µM"
>>> obs_value("CNC(=O)c1nc(-c2cccc(CNC3CCc4ccc(Br)cc43)c2)cnc1N (centres unmarked) [Example 501]")
"0.05 to 1 µM"
>>> obs_value("CN(C)CCCNC(=O)c1nc(-c2cccc(CN[C@H]3CCc4ccccc43)c2)cnc1N [Example 585]")
"1 to 10 µM"
>>> obs_value("CNc1nccc(-c2nc(-c3cccc(C(=O)NCc4ccccc4)c3)cnc2N)n1 [Example 657]")
"≥ 10 µM"
>>> obs_value("CC(C)(C)OC(=O)N1CC[C@H](NC(=O)c2nc(-c3cccc(C(=O)N4CCc5ccccc5C4)c3)cnc2N)C1 [Example 711]")
"≥ 10 µM"
>>> obs_value("C/C(=N\\N1CCOCC1)c1nc(-c2cccc(C(=O)NCc3ccccc3)c2)cnc1N [Example 626]")
"1 to 10 µM"
>>> obs_value("CN1CCCC(c2n[nH]c(-c3nc(-c4cccc(CO)c4)cnc3N)n2)C1 (centres unmarked) [Example 736]")
"1 to 10 µM"
>>> obs_value("Nc1ncc(-c2cccc(CO)c2)nc1C(=O)NNC(=O)Nc1ccccc1 [Example 572]")
"0.05 to 1 µM"
>>> obs_value("Nc1ncc(-c2cccc(CO)c2)nc1-c1nnc[nH]1 [Example 535]")
"1 to 10 µM"
>>> obs_value("C/C(=N\\Nc1nc2ccccc2s1)c1nc(-c2cccc(C(=O)NCc3ccccc3)c2)cnc1N [Example 601]")
"≥ 10 µM"
>>> obs_value("CNC(=O)c1cc(-c2cccc(CNC3CCc4c(F)ccc(Br)c43)c2)cnc1N (centres unmarked) [Example 521]")
"1 to 10 µM"
>>> obs_value("CNC(=O)c1nc(-c2cccc(CN[C@H]3Cc4ccc(Br)cc4C3)c2)cnc1N [Example 465]")
"< 0.05 µM"
>>> obs_value("Nc1ncc(-c2cccc(CN[C@H]3CCc4ccccc43)c2)nc1-c1nc(-c2cccnc2)n[nH]1 [Example 596]")
"< 0.05 µM"
>>> obs_value("CCN1CCCC(c2nnc(-c3nc(-c4cccc(CO)c4)cnc3N)[nH]2)C1 (centres unmarked) [Example 732]")
"1 to 10 µM"
